# study_system: second bromodomain of BRD4 (Homo sapiens (Human))
# experiment_notes: Bromoscan binding assay BRD4 (2)
# condition_details: geometric mean where multiple measurements have been made
Reported Kd values for a set of compounds

Worked cases, Kd given:
* CNCCOc1cc(NC(=O)c2cc3c(nc2N2CCOCC2)COC3)cc2c(C)cc(=O)[nH]c12 | > 5 µM
* Cc1cc2[nH]c(=O)cc(C)c2cc1NC(=O)c1cc2c(nc1N1CCOCC1)COC2 | > 10 µM

Next compound, Kd to be filled in.
second bromodomain of BRD4 (Homo sapiens (Human)) / Kd / COc1cc(NC(=O)c2cc3c(nc2N2CC4CC2(C)C4)COC3)cc2c(C)cc(=O)[nH]c12 : value? > 5 µM
